# key: entry, value: protein stability index
- method_notes: protein stability index of a GFP-peptide fusion (yeast GPS) (PSI 1-4); higher = more stable; sorted into four equal gates, so the index is relative within each strain
- measurement_setup: ubr1∆

>  <residue_codes>
ADINSNRLSNPQKNLLL [YOR098C/NUP1]

>  <protein stability index>
2.88

$$$$
>  <residue_codes>
SHERFFLSQGLHVVITL [CSN12]

>  <protein stability index>
2.87

$$$$
>  <residue_codes>
DSYGQGSMTKTWYVGNS [SSN2]

>  <protein stability index>
3.05

$$$$
>  <residue_codes>
RFNVVKVSAAAGKANKQ [RPS11A]

>  <protein stability index>
2.22

$$$$
>  <residue_codes>
LDKHERKWMEEKADYER [YIL149C/MLP2]

>  <protein stability index>
3.25

$$$$
>  <residue_codes>
EVIFTDVLKSQANTEPE [MCD1]

>  <protein stability index>
2.95

$$$$
>  <residue_codes>
NELQEERLKVPILVTLV [POP6]

>  <protein stability index>
1.7

$$$$
>  <residue_codes>
LLNRIPRMYHIGLRQFQ [POP1]

>  <protein stability index>
1.3

$$$$
>  <residue_codes>
AKPFQVTKEYFQDVYDL [FAS1]

>  <protein stability index>
2.72

$$$$
>  <residue_codes>
GVSISVSFNSKQNEQLH [SMC3]

>  <protein stability index>
2.35

$$$$
>  <residue_codes>
TNDGIERYSDKYLKKRK [RPC31]

>  <protein stability index>
2.88

$$$$
>  <residue_codes>
SETDLNDIPLGSGQPDN [SRB8]

>  <protein stability index>
2.87

$$$$
>  <residue_codes>
SIVLLLLSQFGIKVLPE [YML103C/NUP188]

>  <protein stability index>
1.42

$$$$
>  <residue_codes>
HQHGDKVDIFEIPETGE [FAS2]

>  <protein stability index>
2.54

$$$$
>  <residue_codes>
DSRLSRKQIDETQVLVS [BRR2]

>  <protein stability index>
2.13

$$$$
>  <residue_codes>
SSYEEFLERFDFYTRHH [ITC1]

>  <protein stability index>
3.1

$$$$
>  <residue_codes>
KTQFSWQYYYYTLTEEG [RPS10A]

>  <protein stability index>
2.35

$$$$
>  <residue_codes>
QDVDDAHAIDQMTWRQW [POP8]

>  <protein stability index>
2.5

$$$$
>  <residue_codes>
KKSKRLDKVGKKKGGKK [LRP1]

>  <protein stability index>
3.24

$$$$
>  <residue_codes>
LPILPIQRLRLLREKQR [YOR098C/NUP1]

>  <protein stability index>
2.02

$$$$

###

- method_notes: protein stability index of a GFP-peptide fusion (yeast GPS) (PSI 1-4); higher = more stable; sorted into four equal gates, so the index is relative within each strain
- measurement_setup: doa10∆
Class 1.0: protein stability index at least 3. Class 0.0: protein stability index below 3.

>  <residue_codes>
IAEVGNKRWKVDIGGKQ [RRP4]

>  <category>
1.0

$$$$
>  <residue_codes>
DDDINWQELARSTDEFN [RPT5]

>  <category>
1.0

$$$$
>  <residue_codes>
DKSTTQLRKEIQLLDEN [MED11]

>  <category>
0.0

$$$$
>  <residue_codes>
PCLSRSCTKCPQIVVPD [DIS3]

>  <category>
0.0

$$$$
>  <residue_codes>
GKVRLWKATYSNEFKCM [YGL100W/SEH1]

>  <category>
0.0

$$$$
>  <residue_codes>
HFAWLPTHIWNAKRSHM [POP1]

>  <category>
0.0

$$$$
>  <residue_codes>
TDDADDHINWEHIKQDY [NSL1]

>  <category>
1.0

$$$$
>  <residue_codes>
DNVDDIGEFNVSMYQNS [YDL088C/ASM4]

>  <category>
1.0

$$$$
>  <residue_codes>
KEASQEDDNNNVEKPSS [YLR335W/NUP2]

>  <category>
1.0

$$$$
>  <residue_codes>
LKSAIRDEIAKNTELSY [RPN12]

>  <category>
0.0

$$$$
>  <residue_codes>
NEDENIQLIKILNSHFD [YJL041W/NSP1]

>  <category>
0.0

$$$$
>  <residue_codes>
IDTSKNLENMSIQDTST [YCG1]

>  <category>
0.0

$$$$
>  <residue_codes>
DGGLEEETDEVSSESSD [SIR3]

>  <category>
1.0

$$$$
>  <residue_codes>
RTKFVRSLVREIAGLSP [RPL36A]

>  <category>
0.0

$$$$
>  <residue_codes>
IPSSKYAYMMNSQSPRG [YLR018C/POM34]

>  <category>
0.0

$$$$
>  <residue_codes>
PRYTYHTIFSDVCKTRF [YML031W/NDC1]

>  <category>
0.0

$$$$

###

- method_notes: protein stability index of a GFP-peptide fusion (yeast GPS) (PSI 1-4); higher = more stable; sorted into four equal gates, so the index is relative within each strain
- measurement_setup: doa10∆
Class 1: protein stability index at least 3. Class -1: protein stability index below 3.

>  <residue_codes>
INFKSREAIRPGHEMED [AAR2]

>  <category>
1

$$$$
>  <residue_codes>
NNIVSVLTAGVNSVAIK [RPN11]

>  <category>
-1

$$$$
>  <residue_codes>
AMSTVTLGVVGKSEKLS [SKI6]

>  <category>
-1

$$$$
>  <residue_codes>
NTTDPLGHTKAALGEVA [SIR2]

>  <category>
-1

$$$$
>  <residue_codes>
LLAVAIAASYHYPEIED [RPP0]

>  <category>
-1

$$$$
>  <residue_codes>
LSMRFQRETSGMIVISM [SRB8]

>  <category>
-1

$$$$
>  <residue_codes>
LKPSMSVALHRHSNALV [RPT3]

>  <category>
-1

$$$$
>  <residue_codes>
IDMGEDKENVPVEKVKE [DPB4]

>  <category>
1

$$$$
>  <residue_codes>
KRKKEANEEPNTENVES [ITC1]

>  <category>
1

$$$$
>  <residue_codes>
VELLDSNDRVNPLIELT [ITC1]

>  <category>
1

$$$$
>  <residue_codes>
TNENGETDDNIETVMTQ [SRB4]

>  <category>
-1

$$$$
>  <residue_codes>
VDVFAMPQSGTGVSVEA [RPN11]

>  <category>
1

$$$$
>  <residue_codes>
YDNGQVFPSSILDITDE [RPP0]

>  <category>
-1

$$$$
>  <residue_codes>
NLIGVITHQGANSESGH [UBP6]

>  <category>
-1

$$$$
>  <residue_codes>
ANICLTFLESINGINWR [SIN4]

>  <category>
-1

$$$$
>  <residue_codes>
DVPSEDDPTQLVSRGGC [RPO21]

>  <category>
1

$$$$

###

- method_notes: protein stability index of a GFP-peptide fusion (yeast GPS) (PSI 1-4); higher = more stable; sorted into four equal gates, so the index is relative within each strain
- measurement_setup: ubr1∆
# key: entry, value: protein stability index

>  <residue_codes>
SVKLKQKRLEAGALNLA [DIS3]

>  <protein stability index>
3

$$$$
>  <residue_codes>
GASGEERLMSRPFGVAL [PUP2]

>  <protein stability index>
3.13

$$$$
>  <residue_codes>
LDDITDSNTTEILTSVD [SIR4]

>  <protein stability index>
3.08

$$$$
>  <residue_codes>
QRHIAVGKQIVNIPSFM [RPS9A]

>  <protein stability index>
2.8

$$$$
>  <residue_codes>
FQIEADFIGHNSNINTL [ASC1]

>  <protein stability index>
2.68

$$$$
>  <residue_codes>
DSETSDPNEVEIKKLLA [DIS3]

>  <protein stability index>
3.27

$$$$
>  <residue_codes>
IPSSKYAYMMNSQSPRG [YLR018C/POM34]

>  <protein stability index>
2.75

$$$$
>  <residue_codes>
ISLEALNFYITNVPKAK [SIR3]

>  <protein stability index>
2.87

$$$$
>  <residue_codes>
QGPRSYFLDVKCPGCLN [RPS27A]

>  <protein stability index>
2.6

$$$$
>  <residue_codes>
IYQTLIALNLDTTVNDC [SNF2]

>  <protein stability index>
2.35

$$$$
>  <residue_codes>
KQLNSLRRSGQIANDPS [SMD1]

>  <protein stability index>
2.91

$$$$
>  <residue_codes>
EQKNTAKEELNGLKDQL [YIL149C/MLP2]

>  <protein stability index>
3.31

$$$$
>  <residue_codes>
IYFTVPNEFEIQLSTVN [RGR1]

>  <protein stability index>
2.2

$$$$
>  <residue_codes>
KYKPTPLYVMDEIDAAL [SMC4]

>  <protein stability index>
2.81

$$$$
>  <residue_codes>
VVARRSNSANVSSPESE [ITC1]

>  <protein stability index>
3.18

$$$$
>  <residue_codes>
SQASSDLGETFRGIIRS [CSL4]

>  <protein stability index>
3.24

$$$$
>  <residue_codes>
RSLVREIAGLSPYERRL [RPL36A]

>  <protein stability index>
2.82

$$$$
>  <residue_codes>
NRLSNPQKNLLLKGPAS [YOR098C/NUP1]

>  <protein stability index>
2.94

$$$$
>  <residue_codes>
TDLIREKTMMTFGKPEE [YCS4]

>  <protein stability index>
3.11

$$$$
>  <residue_codes>
IGHLITKEEIMHGLQAK [RPN5]

>  <protein stability index>
3.01

$$$$
>  <residue_codes>
AALFRLHKFLTKWGLIN [SWI3]

>  <protein stability index>
2.66

$$$$
>  <residue_codes>
GGFTNLTSQAPQTTQMF [YDL088C/ASM4]

>  <protein stability index>
3.08

$$$$

Cited source for all entries: the supplement of paper PMC9732359
